Target or system the protein given by its sequence; metric Ki; compiled from varied reports.
Target protein (sequence): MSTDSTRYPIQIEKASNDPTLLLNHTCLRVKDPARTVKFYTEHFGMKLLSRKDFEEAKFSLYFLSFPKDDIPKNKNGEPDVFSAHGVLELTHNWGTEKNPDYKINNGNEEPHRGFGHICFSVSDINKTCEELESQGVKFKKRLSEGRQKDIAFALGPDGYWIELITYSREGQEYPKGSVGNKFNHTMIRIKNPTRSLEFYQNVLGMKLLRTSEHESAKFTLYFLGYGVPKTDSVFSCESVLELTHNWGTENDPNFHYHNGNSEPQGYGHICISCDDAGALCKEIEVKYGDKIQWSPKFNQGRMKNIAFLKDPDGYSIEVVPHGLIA
Please note: Ki exactly at 6 µM is no. Only values below 6 µM get yes.

# count of solved cases: 6
N[C@@H](CNC(=O)N[C@@H](CCC(=O)N(O)c1ccc(Br)cc1)C(=O)NCC(=O)O)C(=O)O	yes
COC(=O)CC(=O)CC[C@H](NC(=O)CC[C@H](N)C(=O)O)C(=O)NCC(=O)O	no
N[C@@H](CCC(=O)N[C@@H](CSCc1ccc(Br)cc1)C(=O)NCC(=O)O)C(=O)O	no
N[C@@H](CCC(=O)N[C@@H](CCC(=O)CC(=O)OCc1ccc(Br)cc1)C(=O)NCC(=O)O)C(=O)O	no
N[C@@H](CCC(=O)N[C@H](CCC(=O)N(O)c1ccc(Br)cc1)C(=O)NCC(=O)O)C(=O)O.O=C(O)C(F)(F)F	yes
N[C@@H](CNC(=O)N[C@@H](CSC(=O)N(O)c1ccc(Br)cc1)C(=O)NCC(=O)O)C(=O)O	yes

We next turn to a different compound, shown below.
Inquiry: A record lists N[C@@H](CNC(=O)N[C@@H](CSCc1ccc(Br)cc1)C(=O)NCC(=O)O)C(=O)O . Is its Ki below 6 µM?
Reply text: no
